Molecular target: purified HLA DRB1 *0901 (Homo sapiens, UniProt P01903+P01911, A100R/A103E/D57H/D86V/F55Y/F60I/F76Y/I96F/K127E/L162R/M171V/P40D/Q125H/Q99R/R33Q/R42F/S133A/S66N/T210M/V115G/W38K/Y107V/Y59G/Y89S)
Assay: IC50nM to purified HLA | DRB1 *0901
Where no end group is shown, it is not given here.
Assign pIC50 to each entry below.
To interpret pIC50, take it as minus log10 of a concentration measured in moles per litre.

Query: Requested read-out: pIC50. Entry: AAAFFVAAWTLKADA [SEQ ID NO: 16]
Result: 7.49

Query: Data request, read-out pIC50, for AAAFFVAAFTLKADA [SEQ ID NO: 18]
Result: 6.95

Query: # input sequence: AAAFFVAAWTLKAAA [SEQ ID NO: 11] ; wanted: its pIC50
Result: 7.51

Query: Any idea what pIC50 was measured for AAAWFVAAWTLHAAA [SEQ ID NO: 7] ?
Result: 7.48

Query: Reported pIC50, sequence AAAWFVAAYTLHAAA [SEQ ID NO: 8] : ____
Result: 7.72

Query: So what does the record say about pIC50 for AAAWFVAAWTLKAAA [SEQ ID NO: 5] ?
Result: 7.46

Query: Which pIC50 is reported for this sequence? AAAWFVAANTLHAAA [SEQ ID NO: 10]
Result: 7.48

Query: Recorded pIC50 of AAAKFVAAWTLHAAA [SEQ ID NO: 6] , please.
Result: 7.62

Query: Fill in: pIC50 of AAAFFVAAFTLHAAA [SEQ ID NO: 14] is ___
Result: 7.32

Query: Returns the measured pIC50 for the input sequence. Input: AAAYFVAAYTLHAAA [SEQ ID NO: 22]
Result: 7.96

Query: Reported pIC50 for AAAFFVAANTLHAAA [SEQ ID NO: 15] : what is it?
Result: 7.51

Query: Name the reported pIC50 value associated with the sequence AAAHFVAAWTLKAAA [SEQ ID NO: 25]
Result: 7.35

* * *

Task for the reader: assign each of the following sequences its reported IC50.
Molecular target: HLA DRB1 *0401 (Homo sapiens, UniProt P01903+P01911, A100K/A169T/F76Y/I96L/K127E/L162R/M171V/N62H/P40V/Q125Y/R42H/S133A/S149N/S66Y/V115G/V209L/W38E)
Assay: IC50nM to purified HLA | DRB1 *0401
Where no end group is shown, it is not given here.
Answer as a quantity: numeral, then unit.

Query: Report IC50 for AAAHFVAAFTLHAAA [SEQ ID NO: 28] please.
Result: 2.2 nM

Query: Which IC50 value is on record for AAADFVAAWTLHAAA [SEQ ID NO: 41] ?
Result: 5.3 nM

Query: # input sequence: AAAHFVAAYTLKADA [SEQ ID NO: 32] ; wanted: its IC50
Result: 11 nM

Query: I have this sequence here, AAADFVAANTLHAAA [SEQ ID NO: 44] , and I need its recorded IC50.
Result: 6.6 nM

Query: Value lookup for IC50; key = AAAHFVAAYTLKAEA [SEQ ID NO: 37]
Result: 7.5 nM

Query: Report IC50 for AAAKFVAAWTLKADA [SEQ ID NO: 30] please.
Result: 7.3 nM

Query: Find the recorded IC50 belonging to AAAEFVAAYTLHAAA [SEQ ID NO: 47] and report it.
Result: 2.3 nM

Query: Would you kindly share the measured IC50 for AAAHFVAAFTLKAEA [SEQ ID NO: 38] ?
Result: 6.4 nM

Query: // IC50 lookup, key: AAAEFVAAWTLKAAA [SEQ ID NO: 45]
Result: 3.8 nM

Query: Please look up its IC50: AAAHFVAANTLHAAA [SEQ ID NO: 29]
Result: 4.5 nM

Query: What value of IC50 has been recorded for this entry: AAAHFVAANTLKADA [SEQ ID NO: 34]
Result: 21 nM

Query: Sample AAADFVAAFTLHAAA [SEQ ID NO: 43] — what was its IC50?
Result: 4.7 nM

Query: Data request, read-out IC50, for AAAKFVAAWTLKAEA [SEQ ID NO: 35]
Result: 6.5 nM

Query: Given AAAEFVAAFTLHAAA [SEQ ID NO: 48] , state its recorded IC50.
Result: 2.1 nM
